# system.name: KHK-C (Homo sapiens (Human), UniProt P50053)
# Sequence (P50053 whole entry): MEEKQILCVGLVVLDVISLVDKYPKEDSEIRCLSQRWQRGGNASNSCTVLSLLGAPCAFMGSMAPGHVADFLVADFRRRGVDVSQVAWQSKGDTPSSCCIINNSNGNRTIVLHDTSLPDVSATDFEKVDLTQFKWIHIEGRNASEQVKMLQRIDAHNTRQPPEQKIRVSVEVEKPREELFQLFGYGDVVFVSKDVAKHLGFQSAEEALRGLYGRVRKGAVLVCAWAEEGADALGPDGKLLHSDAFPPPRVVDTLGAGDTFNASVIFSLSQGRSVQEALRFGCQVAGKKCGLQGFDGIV
# test.details: Assay C: KHK assay at high fructose (8 mM) and ATP (2 mM), 1 nM KHK-C
# Type: biochemical
# applied.conditions: 8 mM fructose, 2 mM ATP, avg of (#) runs
outcome.measure: pIC50
The quantity pIC50 is defined as the negative base-10 logarithm of the molar concentration.

**Q:** Find the recorded pIC50 belonging to `C[C@H]1[C@H](O)CN1c1nc(N2C[C@@H]3[C@@H](CC(=O)O)[C@@H]3C2)c(Cl)c(C(F)(F)F)c1C#N` and report it.
**A:** 8.44

###

# system.name: KHK-C (Homo sapiens (Human), UniProt P50053)
# test.details: Assay B: KHK assay with 1 nM KHK-C, absorbance for 3 hours
# applied.conditions: read-out: IC50 (nM) Assay B 1 nM KHK-C; 1 nM KHK-C, 0.2 mM ATP, 3 hours; avg of (#) runs
IC50 strictly under 2 nM means class 1; at 2 nM or over means class 0.

**Q:** Hi there! Is IC50 for `C[C@H]1CCN1c1nc(C(F)F)c(Cl)c(N2C[C@@H]3[C@@H](CC(=O)O)[C@@H]3C2)n1` below 2 nM, do you know?
**A:** class 0

**Q:** Hi there! Is IC50 for `C[C@H]1[C@H](O)CN1c1nc(N2C[C@@H]3[C@@H](CC(=O)O)[C@@H]3C2)c(F)c(C(C)(F)F)c1C#N` below 2 nM, do you know?
**A:** class 1

**Q:** Hi there! Is IC50 for `Cc1c(N2C[C@@H]3[C@@H](CC(=O)O)[C@@H]3C2)nc(N2C[C@@H](O)[C@@H]2C)nc1C(F)(F)F` below 2 nM, do you know?
**A:** class 0

**Q:** Hi there! Is IC50 for `Cc1c(N2C[C@@H]3[C@@H](CC(=O)O)[C@@H]3C2)nc(N2CC[C@@H]2C)nc1C(F)(F)F` below 2 nM, do you know?
**A:** class 0

**Q:** Hi there! Is IC50 for `Cc1c(C(F)F)nc(N2CC[C@@H]2C)nc1N1C[C@@H]2[C@@H](CC(=O)O)[C@@H]2C1` below 2 nM, do you know?
**A:** class 0
